System: P-388/SCHABEL (MDR)
Experiment: LAMELLARINS TOXICITY TO RESISTANT (MDR) TUMOR CELL LINE P-388/SCHABEL (MTT)
Assay type: cell-based
Conditions: Mus musculus, P388, 72 h; P-388/SCHABEL (MDR), MTT, three days; read-out: ACTIVITY: IC50
Measured quantity: IC50 (µg/mL)
Give bare numbers, in µg/mL.

Below: 5 compounds and their reported IC50.
COc1ccc(CCN(C)CCCC(C#N)(c2ccc(OC)c(OC)c2)C(C)C)cc1OC (stereo not drawn) [Verapamil, reference compound] ... 10
COc1ccc(-c2c3n(c4c(=O)oc5cc(O)c(OC)cc5c24)CCc2cc(O)c(OC)cc2-3)cc1O ... 0.7
COc1cc(-c2c3n(c4c(=O)oc5cc(OC(C)=O)c(OC)cc5c24)CCc2c-3cc(OC)c(OC)c2OC(C)=O)ccc1OC(C)=O [Lamellarin K-triacetate] ... 0.1
COc1ccc(-c2c3n(c4c(=O)oc5cc(OC(C)=O)c(OC)cc5c24)CCc2cc(OC(C)=O)c(OC)cc2-3)cc1OC(C)=O [Lamellarin L-triacetate] ... 1.5
COc1cccc2c1C(=O)c1c(O)c3c(c(O)c1C2=O)C[C@@](O)(C(=O)CO)C[C@@H]3O[C@H]1C[C@H](N)[C@H](O)[C@H](C)O1 [Adriamycin, reference compound] ... 1.2

Attention now shifts to the item below.
Using the record for COc1cc2c(cc1O)oc(=O)c1c2c(-c2ccc(OC)c(OC)c2)c2n1CCc1c-2cc(OC)c(OC)c1OC , report its IC50.
2.5

---

Test system: CHOB1
Test: LAMELLARINS TOXICITY TO SENSITIVE TUMOR CELL LINE CHOB1 (MTT)
Assay type: cell-based, chinese hamster
Settings: Cricetulus griseus, 72 h; CHOB1, sensitive, MTT, three days; read-out: ACTIVITY: IC50
Threshold 0.4 µg/mL: IC50 strictly smaller gives True, otherwise False.

Just wondering, is IC50 of COc1cc(-c2c3n(c4c(=O)oc5cc(O)c(OC)cc5c24)C(O)Cc2c-3cc(OC)c(OC)c2OC)ccc1O (stereo not shown) [Lamellarin A] below 0.4 µg/mL?
True

Dear colleague, could you confirm whether IC50 of COc1cc(-c2c3c4cc(OC)c(OC(C)=O)cc4oc(=O)c3n3ccc4cc(OC(C)=O)c(OC)cc4c23)ccc1OC(C)=O [Lamellarin D-triacetate] falls below 0.4 µg/mL? Thanks.
True

Take the molecule COc1ccc(-c2c3n(c4c(=O)oc5cc(OC(C)=O)c(OC)cc5c24)CCc2c-3cc(OC)c(OC)c2OC)cc1OC [Lamellarin I-acetate] and say whether its IC50 is less than 0.4 µg/mL.
False

Please determine if COc1cc(-c2c3n(c4c(=O)oc5cc(O)c(OC)cc5c24)CCc2c-3cc(OC)c(OC)c2O)ccc1O [Lamellarin K] is below 0.4 µg/mL in terms of IC50.
True

Please let me know if COc1cc2c(cc1O)oc(=O)c1c2c(-c2ccc(OC)c(OC)c2)c2n1CCc1c-2cc(OC)c(OC)c1OC [Lamellarin I] shows IC50 below 0.4 µg/mL.
True

Dear colleague, could you confirm whether IC50 of COc1cc(-c2c3n(c4c(=O)oc5cc(OC(C)=O)c(OC)cc5c24)CCc2c-3cc(OC)c(OC)c2OC(C)=O)ccc1OC(C)=O [Lamellarin K-triacetate] falls below 0.4 µg/mL? Thanks.
True

Record COc1ccc(-c2c3c4cc(OC)c(OC(C)=O)cc4oc(=O)c3n3ccc4cc(OC(C)=O)c(OC)cc4c23)cc1OC(C)=O [Lamellarin N-triacetate] : is its IC50 strictly below 0.4 µg/mL?
True

Decide: IC50 of COc1cccc2c1C(=O)c1c(O)c3c(c(O)c1C2=O)C[C@@](O)(C(=O)CO)C[C@@H]3O[C@H]1C[C@H](N)[C@H](O)[C@H](C)O1 [Adriamycin, reference compound] strictly below 0.4 µg/mL?
True

hey, is IC50 for C/C=C/C[C@@H](C)C(=O)[C@H]1C(=O)N[C@@H](C(C)C)C(=O)N(C)CC(=O)N(C)[C@@H](CC(C)C)C(=O)N[C@@H](C(C)C)C(=O)N(C)[C@@H](CC(C)C)C(=O)N[C@@H](C)C(=O)N[C@H](C)C(=O)N(C)[C@@H](CC(C)C)C(=O)N(C)[C@@H](CC(C)C)C(=O)N(C)[C@@H](C(C)C)C(=O)N1C [PSC833, reference compound] lower than 0.4 µg/mL or not?
True

---

Assign IC50 to each entry below.
Test system: CHOC5 (MDR)
Assay: LAMELLARINS TOXICITY TO RESISTANT (MDR) TUMOR CELL LINE CHOC5 (MTT)
Type: cell-based, chinese hamster
Conditions: Cricetulus griseus, 72 h; CHOC5 (MDR), MTT, three days; read-out: ACTIVITY: IC50
Param answer (str): number followed by unit.

Guide cases for IC50, answers given:
COc1ccc(CCN(C)CCCC(C#N)(c2ccc(OC)c(OC)c2)C(C)C)cc1OC (stereo not drawn) [Verapamil, reference compound] ... 4 µg/mL
COc1ccc(-c2c3n(c4c(=O)oc5cc(OC(C)=O)c(OC)cc5c24)CCc2cc(OC(C)=O)c(OC)cc2-3)cc1OC(C)=O [Lamellarin L-triacetate] ... 1.5 µg/mL
COc1cc(-c2c3n(c4c(=O)oc5cc(O)c(OC)cc5c24)CCc2c-3cc(OC)c(OC)c2O)ccc1O [Lamellarin K] ... 0.4 µg/mL

Report IC50 for every entry below.
1. COc1cc(-c2c3n(c4c(=O)oc5cc(O)c(OC)cc5c24)C(O)Cc2c-3cc(OC)c(OC)c2OC)ccc1O (stereo not drawn) [Lamellarin A]
2. COc1cc2c(cc1O)oc(=O)c1c2c(-c2ccc(OC)c(OC)c2)c2n1CCc1c-2cc(OC)c(OC)c1OC [Lamellarin I]
3. COc1cccc2c1C(=O)c1c(O)c3c(c(O)c1C2=O)C[C@@](O)(C(=O)CO)C[C@@H]3O[C@H]1C[C@H](N)[C@H](O)[C@H](C)O1 [Adriamycin, reference compound]

["0.4 µg/mL", "1 µg/mL", "3 µg/mL"]

---

System: P-388/SCHABEL (MDR)
Experiment: LAMELLARINS TOXICITY TO RESISTANT (MDR) TUMOR CELL LINE P-388/SCHABEL (MTT)
Format: cell-based
Conditions: Mus musculus, P388, 72 h; P-388/SCHABEL (MDR), MTT, three days; read-out: ACTIVITY: IC50
Measured quantity: IC50 (µg/mL)
Numbers only, in µg/mL.

COc1ccc(-c2c3c4cc(OC)c(OC(C)=O)cc4oc(=O)c3n3ccc4cc(OC(C)=O)c(OC)cc4c23)cc1OC(C)=O [Lamellarin N-triacetate] ... 0.2

Look up IC50 for the entries below, preserving their order.
1. COc1ccc(-c2c3n(c4c(=O)oc5cc(OC(C)=O)c(OC)cc5c24)CCc2c-3cc(OC)c(OC)c2OC)cc1OC [Lamellarin I-acetate]
2. C/C=C/C[C@@H](C)C(=O)[C@H]1C(=O)N[C@@H](C(C)C)C(=O)N(C)CC(=O)N(C)[C@@H](CC(C)C)C(=O)N[C@@H](C(C)C)C(=O)N(C)[C@@H](CC(C)C)C(=O)N[C@@H](C)C(=O)N[C@H](C)C(=O)N(C)[C@@H](CC(C)C)C(=O)N(C)[C@@H](CC(C)C)C(=O)N(C)[C@@H](C(C)C)C(=O)N1C [PSC833, reference compound]

1. 5.5
2. 0.05

---

Tested on: P388
Test: Lamellarin in vitro activity vs. tumor cell lines, P388
Conditions: Mus musculus, P388
What IC50 was measured for each of the following?

COc1cc2c(cc1O)oc(=O)c1c2c(-c2ccc(OC)c(OC)c2)c2n1CCc1c-2cc(OC)c(OC)c1OC ... 1 mg/L
COc1cc(-c2c3n(c4c(=O)oc5cc(O)c(OC)cc5c24)CCc2c-3cc(OC)c(OC)c2O)ccc1O ... 0.25 mg/L
COc1cc2c(cc1O)CCn1c-2c(-c2ccc(OC)c(OC)c2)c2c3cc(OC)c(O)cc3oc(=O)c21 ... 0.1 mg/L
COc1cc(-c2c3c4cc(OC)c(O)cc4oc(=O)c3n3ccc4c(O)c(OC)c(OC)cc4c23)ccc1O ... 0.05 mg/L
COc1ccc(-c2c3n(c4c(=O)oc5cc(O)c(OC)cc5c24)CCc2cc(O)c(OC)cc2-3)cc1O ... 0.25 mg/L

Let us examine a further case.
So what does the record say about IC50 for COc1ccc(-c2c3c4cc(OC)c(OC(C)=O)cc4oc(=O)c3n3ccc4cc(OC(C)=O)c(OC)cc4c23)cc1OC(C)=O [Lamellarin N-triacetate] ?
0.1 mg/L
